Test system: Li UCM9 promastigotes
Assay: Multiplication of Li promastigotes in vitro (CellTiter-Glo, 24 h)
Assay type: cell-based, Leishmania infantum
Conditions: Leishmania infantum; 120 µM, 24 h, compared to untreated cultures, mean ± SD; read-out: Reduction (%) of multiplication, L infantum promastigotes
quantity: inhibition of growth at 120 µM (%)
One number for each entry, in %.

Examples with answers:
COc1cc(C2Oc3cc([C@H]4Oc5cc(O)cc(O)c5C(=O)[C@@H]4O)ccc3OC2CO)ccc1O (stereo partly drawn)
5.4
COc1cc([C@@H]2[C@H]3CO[C@@]4(O)C(=O)[C@@H]2C=C([C@H]2Oc5cc(O)cc(O)c5C(=O)[C@@H]2O)[C@@H]34)ccc1O
16.4
COc1cc([C@@H]2Oc3cc(-c4oc5cc(O)cc(O)c5c(=O)c4O)ccc3O[C@H]2CO)ccc1O [Dehydrosilybin B, dehydrosilybin B]
20.9
COc1cc([C@H]2Oc3ccc(-c4oc5cc(O)cc(O)c5c(=O)c4O)cc3O[C@@H]2CO)ccc1O [Dehydroisosilybin A, dehydroisosilybin A]
38.3
COc1cc([C@H]2Oc3cc(-c4oc5cc(O)cc(O)c5c(=O)c4O)ccc3O[C@@H]2CO)ccc1O [Dehydrosilybin A, dehydrosilybin A]
10.2

Task: Any idea what inhibition of growth at 120 µM was measured for COc1cc(C2C3C=C(c4oc5cc(O)cc(O)c5c(=O)c4O)C4C2COC4(O)C3=O)ccc1O (stereo not drawn) [Dehydrosilydianin, dehydrosilydianin] ?
Result: 42.2

---

Record form. Attribute: inhibition of growth at 120 µM. Fill in for each entry.
System: Li UCM9 promastigotes
Assay: Multiplication of Li promastigotes in vitro (CellTiter-Glo, 24 h)
Assay type: cell-based, Leishmania infantum
Conditions: Leishmania infantum; 120 µM, 24 h, compared to untreated cultures, mean ± SD; read-out: Reduction (%) of multiplication, L infantum promastigotes
One number for each entry, in %.

COc1cc(C2Oc3cc(-c4oc5cc(O)cc(O)c5c(=O)c4O)ccc3OC2CO)ccc1O (stereo not drawn) [Dehydrosilybin AB, dehydrosilybin AB]
17.9
COc1cc([C@H]2Oc3ccc([C@H]4Oc5cc(O)cc(O)c5C(=O)[C@@H]4O)cc3O[C@@H]2CO)ccc1O
6.94
COc1cc([C@@H]2Oc3c(O)cc([C@H]4Oc5cc(O)cc(O)c5C(=O)[C@@H]4O)cc3[C@H]2CO)ccc1O
27.1
COc1cc([C@@H]2Oc3c(O)cc(-c4oc5cc(O)cc(O)c5c(=O)c4O)cc3[C@H]2CO)ccc1O [Dehydrosilychristin A, dehydrosilychristin A]
30.6
COc1cc([C@@H]2Oc3cc([C@H]4Oc5cc(O)cc(O)c5C(=O)[C@@H]4O)ccc3O[C@H]2CO)ccc1O
-3.82

Now for another entry.
Task: Request - read-out inhibition of growth at 120 µM | tested on Li UCM9 promastigotes | compound COc1cc([C@H]2Oc3cc([C@H]4Oc5cc(O)cc(O)c5C(=O)[C@@H]4O)ccc3O[C@@H]2CO)ccc1O
Result: -3.18

---

Test system: Li UCM9 promastigotes
Assay: Multiplication of Li promastigotes in vitro (CellTiter-Glo, 24 h)
Assay type: cell-based, Leishmania infantum
Settings: Leishmania infantum; exploratory screening, 0.94 µM up to 120 µM; read-out: Maximal effect (inhibition of growth of control cultures) on Li promastigotes
Record form. Attribute: Emax. Fill in for each entry.

Examples with answers:
COc1cc(C2C3C=C(c4oc5cc(O)cc(O)c5c(=O)c4O)C4C2COC4(O)C3=O)ccc1O (centres unmarked) [Dehydrosilydianin, dehydrosilydianin]
< 50%
COc1cc(C2Oc3cc(-c4oc5cc(O)cc(O)c5c(=O)c4O)ccc3OC2CO)ccc1O (centres unmarked) [Dehydrosilybin AB, dehydrosilybin AB]
< 50%
COc1cc([C@@H]2Oc3c(O)cc([C@H]4Oc5cc(O)cc(O)c5C(=O)[C@@H]4O)cc3[C@H]2CO)ccc1O
< 50%
COc1cc([C@H]2Oc3ccc(-c4oc5cc(O)cc(O)c5c(=O)c4O)cc3O[C@@H]2CO)ccc1O [Dehydroisosilybin A, dehydroisosilybin A]
< 50%

Now for another entry.
Task: Any idea what Emax was measured for COc1cc([C@@H]2Oc3c(O)cc(-c4oc5cc(O)cc(O)c5c(=O)c4O)cc3[C@H]2CO)ccc1O [Dehydrosilychristin A, dehydrosilychristin A] ?
Result: < 50%
